- TEST_PROTOCOL: NCI Yeast Anticancer Drug Screen. Data for the mec2-1 strain (AID 157)
- RUN_CONDITIONS: S. cerevisiae mec2-1 strain, at 50.0 µM
Compounds without any hit were thinned out: in the full panel of roughly 79,000, 15% have a hit. Active and inactive are the calls of the source. Cut-off read from the data, not from the text of the source: active = growth inhibition above about 70%; inactive = the rest.
Assign a class; possible classes are active, inactive

Challenge: Each compound tested received a call. Report the one for NC(=O)C(N)CC(=O)O (centres undefined) .
Response given: inactive

Challenge: Each compound tested received a call. Report the one for CCC1CN2CCc3cc(OC)c(OC)cc3C2CC1O (centres undefined) .
Response given: inactive

Challenge: Each compound tested received a call. Report the one for Nc1nc2nc(-c3ccccc3)[nH]c2c(=O)[nH]1 .
Response given: inactive

Challenge: Each compound tested received a call. Report the one for NC(=S)c1ccc(N=Cc2ccccn2)cc1 .
Response given: inactive

Challenge: Each compound tested received a call. Report the one for CCc1cc2c(c3c1CCCC3)CC1(Cc3ccc(C(=O)OC)cc3C1)C2 (centres undefined) .
Response given: inactive

Challenge: Each compound tested received a call. Report the one for N#CC1C(=O)NC(=O)C(C#N)C1c1ccc(Cl)cc1Cl (centres undefined) .
Response given: inactive

Challenge: Each compound tested received a call. Report the one for CC1=NNC(=O)CC1C(O)c1ccc(F)cc1 (centres undefined) .
Response given: inactive

Challenge: Each compound tested received a call. Report the one for COc1ccc(C(O)(c2ccc(OC)cc2)c2ccccc2Cc2ccccc2OC)cc1 .
Response given: inactive

Challenge: Each compound tested received a call. Report the one for Cc1ccc(S(=O)(=O)OCC2CC=CCC2COS(=O)(=O)c2ccc(C)cc2)cc1 (centres undefined) .
Response given: inactive

Challenge: Each compound tested received a call. Report the one for CC(=O)Nc1ccc(F)c(N)c1 .
Response given: inactive

Challenge: Each compound tested received a call. Report the one for CC1(C)CC2=C(SC3C=CC=CC3N2)C(=O)C1C(=O)C(N)=O (centres undefined) .
Response given: inactive

Challenge: Each compound tested received a call. Report the one for CCc1nnc2sc3c(Cl)c4nn5c(CC)nnc5sc4c(Cl)c3nn12 .
Response given: inactive

Challenge: Each compound tested received a call. Report the one for OCCC1=CCC1 .
Response given: inactive

Challenge: Each compound tested received a call. Report the one for CCOC(=O)[C@@]12[C@H](N3C(=O)c4ccccc4C3=O)C(=O)N1CCS2(=O)=O .
Response given: inactive

Challenge: Each compound tested received a call. Report the one for CCOc1ccc(Br)cc1/C=N\NC(=O)c1ccccc1N(C)C .
Response given: inactive

Challenge: Each compound tested received a call. Report the one for C/C(=C/C(=O)Nc1ccc2ccccc2c1)Nc1ccc2ccccc2c1 .
Response given: inactive

Challenge: Each compound tested received a call. Report the one for Cc1nc2ccc(-c3ccccc3)cc2nc1C .
Response given: inactive

Challenge: Each compound tested received a call. Report the one for CC1CCc2c(nc(C#N)c(=N)n2O)C1 (centres undefined) .
Response given: inactive

Challenge: Each compound tested received a call. Report the one for CCN(CC)CC1(C)NN=C2C(n3cccc3)=CC=CN21 (centres undefined) .
Response given: inactive

Challenge: Each compound tested received a call. Report the one for O=C(O)CCc1cccc2c(=O)cc(-c3ccccc3)oc12 .
Response given: inactive

Challenge: Each compound tested received a call. Report the one for C=CCOc1ccccc1C .
Response given: inactive

Challenge: Each compound tested received a call. Report the one for NC(=O)CCC(Nc1c2ccccc2nc2ccccc12)C(=O)O (centres undefined) .
Response given: inactive

Challenge: Each compound tested received a call. Report the one for CCCCCC1CCC(OC(=O)NC)CC1 (centres undefined) .
Response given: inactive

Challenge: Each compound tested received a call. Report the one for COc1ccc(Nc2cccc(Cl)c2)cc1 .
Response given: active

Challenge: Each compound tested received a call. Report the one for O=C(O)c1c(Cl)ccc([N+](=O)[O-])c1Cl .
Response given: inactive

Challenge: Each compound tested received a call. Report the one for O=C1C2=C(c3ccccc31)C(c1ccccc1Cl)N1C(=O)CCSC1=N2 (centres undefined) .
Response given: inactive

Challenge: Each compound tested received a call. Report the one for NC(=O)NC(=S)NC(=O)c1ccccc1 .
Response given: inactive

Challenge: Each compound tested received a call. Report the one for O=C1NCCCC1CCO (centres undefined) .
Response given: inactive

Challenge: Each compound tested received a call. Report the one for NS(=O)(=O)c1ccc2cc(S(N)(=O)=O)ccc2c1 .
Response given: inactive

Challenge: Each compound tested received a call. Report the one for Nc1ccccc1C(=O)CC1OC(=O)c2ccccc21 (centres undefined) .
Response given: inactive

Challenge: Each compound tested received a call. Report the one for CCOc1nc(N)nc(C)c1N=Nc1ccccc1C .
Response given: inactive

Challenge: Each compound tested received a call. Report the one for CCC(C)CCC(N)C(=O)O (centres undefined) .
Response given: inactive

Challenge: Each compound tested received a call. Report the one for NC(=O)SCC(=O)Nc1ccc2ncccc2c1 .
Response given: inactive

Challenge: Each compound tested received a call. Report the one for Cc1ccc2ccccc2c1CP(=O)(O)O .
Response given: inactive

Challenge: Each compound tested received a call. Report the one for O=C(NC(=O)C(F)(F)F)Nc1cccc(C(F)(F)F)c1 .
Response given: inactive

Challenge: Each compound tested received a call. Report the one for CCOC(=Nc1cccc2ccccc12)Nc1cccc2ccccc12 .
Response given: inactive

Challenge: Each compound tested received a call. Report the one for NC(N)=NC(CC(=O)O)c1ccccc1 (centres undefined) .
Response given: inactive

Challenge: Each compound tested received a call. Report the one for O=C1Cc2c([nH]c3c(Cl)cccc23)-c2ccccc2N1 .
Response given: inactive

Challenge: Each compound tested received a call. Report the one for Cc1[nH]n(-c2ccccc2)c(=S)c1C(=O)c1ccccc1 .
Response given: inactive
